Below is a list of entries, each paired with its recorded Measured binding coverage 25 alleles value.
- Measured on: 25 HLA Class II alleles (purified class II MHC molecules)
- Protocol summary: competitive radiolabelled-peptide binding to purified HLA class II (25 alleles, binder if IC50 <300 nM); worldwide phenotypic coverage of the alleles found to bind
Write the value in % as a bare number.

Examples from the recorded data:
Measured binding coverage 25 alleles measured on GDEQKLRSAGELELQFRRVK [peptide 206 (Phl p 1, 119)] = 70

Measured binding coverage 25 alleles measured on FIPMKSSWGA [peptide 135, Cyn d 1 (Ber02)] = 19

Measured binding coverage 25 alleles measured on PEVKYAVFEAALTKAIT [peptide 140, Lol p 5a (Rye09B)] = 99

Attention now shifts to the item below.
Measured binding coverage 25 alleles measured on VATLSEALRIIAGTLEVHAV [peptide 234 (Phl p 5, 111)] = 94

All figures here come from patent US20180207228A1.
